# Organism: Rattus norvegicus
# procedure details: Open TG-GATES - Regimen: Daily Repeat
# Assay type: toxicity, organism-based, Sprague-Dawley
# Set-up: regimen Daily Repeat, gender Male, age 6 weeks
# study conditions: in vivo, po, 300 mg/kg, […], tissue Blood, route gavage, dose level Middle, time 7 day
assay metric: Eos
Remember to quote the unit after the number.

(Q) So what does the record say about Eos for CC(=O)[C@@]1(O)CC[C@H]2[C@@H]3C=C(Cl)C4=CC(=O)CC[C@]4(C)[C@H]3CC[C@@]21C [CHLORMADINONE] ?
(A) 0.6%

(Q) So what does the record say about Eos for O=C(O)c1ccccc1Nc1ccccc1 [FENAMIC ACID] ?
(A) 1.2%

(Q) So what does the record say about Eos for CC(S)C(=O)NCC(=O)O (centres undefined) [TIOPRONIN] ?
(A) 1.2%

(Q) So what does the record say about Eos for CCCCNC(=O)NS(=O)(=O)c1ccc(C)cc1 [TOLBUTAMIDE] ?
(A) 1%

====

# Species on record: Rattus norvegicus
# procedure details: Open TG-GATES - Regimen: Daily Repeat
# Format: toxicity, organism-based, Sprague-Dawley
# Set-up: regimen Daily Repeat, gender Male, age 6 weeks
# study conditions: in vivo, po, 300 mg/kg, […], tissue Blood, route gavage, dose level Middle, time 7 day
Kindly state Hb for each of the entries shown.
Number only, in g/dL; omit the unit.

(Q) So what does the record say about Hb for CC(S)C(=O)NCC(=O)O (centres undefined) ?
(A) 14

(Q) So what does the record say about Hb for O=C(O)c1ccccc1Nc1ccccc1 ?
(A) 13.6

(Q) So what does the record say about Hb for CC(=O)[C@@]1(O)CC[C@H]2[C@@H]3C=C(Cl)C4=CC(=O)CC[C@]4(C)[C@H]3CC[C@@]21C ?
(A) 14.7

(Q) So what does the record say about Hb for CCCCNC(=O)NS(=O)(=O)c1ccc(C)cc1 [TOLBUTAMIDE] ?
(A) 14

====

Kindly state Eos for each of the entries shown.
# Species on record: Rattus norvegicus
# procedure details: Open TG-GATES - Regimen: Single
# Format: toxicity, organism-based, Sprague-Dawley
# Parameters: regimen Single, gender Male, age 6 weeks
# study conditions: in vivo, po, 0 mg/kg, 3 h, tissue Blood, route gavage, dose level Control
Number only, in %; omit the unit.

(Q) So what does the record say about Eos for CC(=O)[C@@]1(O)CC[C@H]2[C@@H]3C=C(Cl)C4=CC(=O)CC[C@]4(C)[C@H]3CC[C@@]21C [CHLORMADINONE] ?
(A) 0.6

(Q) So what does the record say about Eos for CN(CCOc1ccc(CC2SC(=O)NC2=O)cc1)c1ccccn1.O=C(O)/C=C\C(=O)O (centres undefined) [ROSIGLITAZONE MALEATE] ?
(A) 0.6

(Q) So what does the record say about Eos for COc1cc2ncnc(Nc3ccc(F)c(Cl)c3)c2cc1OCCCN1CCOCC1 [GEFITINIB] ?
(A) 0.8

(Q) So what does the record say about Eos for CN(C/C=C/C#CC(C)(C)C)Cc1cccc2ccccc12 [TERBINAFINE] ?
(A) 0.8

====

# Species on record: Rattus norvegicus
# procedure details: Open TG-GATES - Regimen: Daily Repeat
# Type: toxicity, organism-based, Sprague-Dawley
# Set-up: regimen Daily Repeat, gender Male, age 6 weeks
# study conditions: in vivo, po, 300 mg/kg, […], tissue Plasma, route gavage, dose level Middle, time 7 day
assay metric: RALB (g/dL)
Number only, in g/dL; omit the unit.

(Q) So what does the record say about RALB for CC(S)C(=O)NCC(=O)O (centres undefined) ?
(A) 2.9

(Q) So what does the record say about RALB for CCCCNC(=O)NS(=O)(=O)c1ccc(C)cc1 [TOLBUTAMIDE] ?
(A) 2.5

(Q) So what does the record say about RALB for CC(=O)[C@@]1(O)CC[C@H]2[C@@H]3C=C(Cl)C4=CC(=O)CC[C@]4(C)[C@H]3CC[C@@]21C ?
(A) 3.2

(Q) So what does the record say about RALB for O=C(O)c1ccccc1Nc1ccccc1 ?
(A) 2.8

From: ChEMBL document CHEMBL3885861
